- experimentalDetails: growth inhibition of GSK3B-pretreated HCT116 cells – cell-based, CellTiter-Glo, 0.2 to 20 µM (AID 1117336)
- cond: HCT116 viability after GSK3B inhibitor, at 20 µM
The source made the active and inactive calls.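 Rule for the calls: active = compounds lowering colon cancer cell viability after pretreatment blocking the GSK3B kinase; inactive = the rest.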
Labels: 1 (yes) for active, 0 (no) for inactive

compound: COc1ccc(C(=O)c2ccccc2O)c(O)c1
assignedClass: 0 (no)

compound: Nc1ccn([C@H]2CC[C@@H](CO)O2)c(=O)n1
assignedClass: 0 (no)

compound: CN1CCC(=C2c3ccccc3C=Cc3ccccc32)CC1
assignedClass: 0 (no)

compound: Nc1ccc(S(=O)(=O)Nc2ccc(Cl)nn2)cc1
assignedClass: 0 (no)

compound: C[C@@H]1CC[C@@]2(OC1)O[C@H]1C[C@H]3[C@@H]4CC[C@H]5C[C@@H](O)CC[C@]5(C)[C@H]4CC(=O)[C@]3(C)[C@H]1[C@@H]2C
assignedClass: 0 (no)

compound: CCOc1ccc(NC(C)=O)cc1
assignedClass: 0 (no)

compound: Nc1c2c(nc3ccccc13)CCCC2O (stereo not drawn)
assignedClass: 0 (no)

compound: COc1cc2nc(N3CCN(C(=O)C4CCCO4)CC3)nc(N)c2cc1OC (stereo not drawn)
assignedClass: 0 (no)

compound: CNCCCCOc1ccccc1Cc1ccccc1
assignedClass: 1 (yes)

compound: C1CCC(C(CC2CCCCN2)C2CCCCC2)CC1 (stereo not drawn)
assignedClass: 1 (yes)

compound: Clc1ccccc1C(c1ccccc1)(c1ccccc1)n1ccnc1
assignedClass: 1 (yes)

compound: CC(C)(Oc1ccc(CCNC(=O)c2ccc(Cl)cc2)cc1)C(=O)O
assignedClass: 0 (no)

compound: Cc1nc2n(c(=O)c1CCN1CCC(c3noc4cc(F)ccc34)CC1)CCC[C@H]2O
assignedClass: 0 (no)

compound: CCCOc1ccc(C(=O)OCCN(CC)CC)cc1N
assignedClass: 0 (no)

compound: CCN(CC)CCOC(=O)C(c1ccccc1)C1CCCCC1 (stereo not drawn)
assignedClass: 0 (no)

compound: NC(=O)OCC(COC(N)=O)c1ccccc1
assignedClass: 0 (no)

compound: O=C1NCC2(CCN(CCc3ccccc3)CC2)O1
assignedClass: 0 (no)

compound: CC(=O)NS(=O)(=O)c1ccc(N)cc1
assignedClass: 0 (no)

compound: C[C@@](Cc1ccc(O)c(O)c1)(NN)C(=O)O
assignedClass: 0 (no)

compound: Cc1c[nH]c2ccccc12
assignedClass: 0 (no)

compound: NC(N)=N/N=C/c1c(Cl)cccc1Cl
assignedClass: 1 (yes)

compound: CC(C)[C@H](N)C(=O)OCCOCn1cnc2c(=O)[nH]c(N)nc21
assignedClass: 0 (no)

compound: Cc1cc2nc3c(=O)[nH]c(=O)nc-3n(C[C@H](O)[C@H](O)[C@H](O)CO)c2cc1C
assignedClass: 0 (no)

compound: COc1ccc2cc3[n+](cc2c1OC)CCc1cc2c(cc1-3)OCO2
assignedClass: 1 (yes)

compound: O=C1c2ccccc2C(=O)c2c1ccc(O)c2O
assignedClass: 0 (no)

compound: O=c1cc[nH]c(=S)[nH]1
assignedClass: 0 (no)

compound: CCCCCCCCCCCCCCCCOP(=O)([O-])OCC[N+](C)(C)C
assignedClass: 1 (yes)

compound: NCC1CCC(C(=O)Oc2ccc(CCC(=O)O)cc2)CC1 (stereo not drawn)
assignedClass: 0 (no)

compound: COc1cc(OC)c(C(=O)CCCN2CCCC2)c(OC)c1
assignedClass: 0 (no)

compound: O=C1CC2(CCCC2)CC(=O)N1CCNCC1COc2ccccc2O1 (stereo not drawn)
assignedClass: 0 (no)

compound: Cc1scc2c1N(C(=O)CN1CCN(C)CC1)c1ccccc1NC2=O
assignedClass: 0 (no)

compound: CCCCc1nc(Cl)c(CO)n1Cc1ccc(-c2ccccc2-c2nn[nH]n2)cc1
assignedClass: 0 (no)

compound: CC(C)(C(=O)c1cccnc1)c1cccnc1
assignedClass: 0 (no)

compound: CN1Cc2c(N)cccc2C(c2ccccc2)C1 (stereo not drawn)
assignedClass: 0 (no)

compound: OCc1cc(C(O)CNCCCCCCOCCCCc2ccccc2)ccc1O (stereo not drawn)
assignedClass: 0 (no)

compound: COc1cc([C@H]2Oc3cc([C@H]4Oc5cc(O)cc(O)c5C(=O)[C@@H]4O)ccc3O[C@@H]2CO)ccc1O
assignedClass: 0 (no)

compound: Nc1[nH]c(=O)ncc1F
assignedClass: 0 (no)

compound: Nc1ccc(C(=O)O)cc1
assignedClass: 0 (no)

compound: CCOC(=O)c1ncn2c1CN(C)C(=O)c1cc(F)ccc1-2
assignedClass: 0 (no)

compound: Cn1c(NCCN(CCO)CCCc2ccc([N+](=O)[O-])cc2)cc(=O)n(C)c1=O
assignedClass: 0 (no)

compound: CCCCCC(C)N (stereo not drawn)
assignedClass: 0 (no)

compound: CO[C@@]1(NC(=O)C(C(=O)O)c2ccc(O)cc2)C(=O)N2C(C(=O)O)=C(CSc3nnnn3C)CO[C@@H]21 (stereo partly drawn)
assignedClass: 0 (no)

compound: COCc1c(C(C)C)nc(C(C)C)c(/C=C/[C@@H](O)C[C@@H](O)CC(=O)O)c1-c1ccc(F)cc1
assignedClass: 1 (yes)

compound: Nc1ccc(N=Nc2ccccc2)c(N)n1
assignedClass: 0 (no)

compound: Cn1c(=O)c2c(ncn2CC(O)CO)n(C)c1=O (stereo not drawn)
assignedClass: 0 (no)

compound: Cc1ccsc1C(=CCCN1CCC[C@@H](C(=O)O)C1)c1sccc1C
assignedClass: 0 (no)

compound: COc1cc(C(=O)NS(=O)(=O)c2ccccc2C)ccc1Cc1cn(C)c2ccc(NC(=O)OC3CCCC3)cc12
assignedClass: 1 (yes)

compound: NC1CCN(c2nc3c(cc2F)c(=O)c(C(=O)O)cn3-c2ccc(F)cc2F)C1 (stereo not drawn)
assignedClass: 0 (no)
